Field: IC50. Provide a value for each of the compounds that follow.
TEST_TARGET: GABA-A receptor; alpha-1/beta-3/gamma-2 (Homo sapiens, UniProt P14867+P18507+P28472)
Sequence (P14867 whole entry): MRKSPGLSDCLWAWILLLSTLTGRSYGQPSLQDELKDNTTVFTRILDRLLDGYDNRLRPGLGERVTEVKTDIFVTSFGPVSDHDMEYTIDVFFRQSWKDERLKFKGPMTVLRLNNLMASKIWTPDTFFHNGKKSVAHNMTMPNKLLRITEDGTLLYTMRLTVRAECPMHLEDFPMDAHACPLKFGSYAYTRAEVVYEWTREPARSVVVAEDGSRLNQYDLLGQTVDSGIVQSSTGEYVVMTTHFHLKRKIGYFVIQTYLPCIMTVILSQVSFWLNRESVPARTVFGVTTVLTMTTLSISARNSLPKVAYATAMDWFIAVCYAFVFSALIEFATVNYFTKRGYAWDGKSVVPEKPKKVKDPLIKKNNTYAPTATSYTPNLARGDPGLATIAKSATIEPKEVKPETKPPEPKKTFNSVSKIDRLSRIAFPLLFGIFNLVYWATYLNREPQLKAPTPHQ
Sequence (P18507 whole entry): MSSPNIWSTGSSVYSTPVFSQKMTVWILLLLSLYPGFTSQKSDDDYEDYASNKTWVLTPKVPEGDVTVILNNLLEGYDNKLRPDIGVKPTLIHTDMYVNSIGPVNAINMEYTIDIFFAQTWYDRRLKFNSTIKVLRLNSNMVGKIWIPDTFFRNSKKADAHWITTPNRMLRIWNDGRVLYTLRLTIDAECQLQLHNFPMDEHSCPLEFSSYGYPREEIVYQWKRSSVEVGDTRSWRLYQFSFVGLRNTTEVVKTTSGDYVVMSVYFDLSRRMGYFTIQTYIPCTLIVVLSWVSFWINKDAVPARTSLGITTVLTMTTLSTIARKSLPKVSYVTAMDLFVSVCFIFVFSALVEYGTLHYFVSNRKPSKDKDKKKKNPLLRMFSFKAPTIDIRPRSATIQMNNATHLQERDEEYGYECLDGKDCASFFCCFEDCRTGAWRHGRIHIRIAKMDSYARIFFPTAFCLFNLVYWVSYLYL
Sequence (P28472 whole entry): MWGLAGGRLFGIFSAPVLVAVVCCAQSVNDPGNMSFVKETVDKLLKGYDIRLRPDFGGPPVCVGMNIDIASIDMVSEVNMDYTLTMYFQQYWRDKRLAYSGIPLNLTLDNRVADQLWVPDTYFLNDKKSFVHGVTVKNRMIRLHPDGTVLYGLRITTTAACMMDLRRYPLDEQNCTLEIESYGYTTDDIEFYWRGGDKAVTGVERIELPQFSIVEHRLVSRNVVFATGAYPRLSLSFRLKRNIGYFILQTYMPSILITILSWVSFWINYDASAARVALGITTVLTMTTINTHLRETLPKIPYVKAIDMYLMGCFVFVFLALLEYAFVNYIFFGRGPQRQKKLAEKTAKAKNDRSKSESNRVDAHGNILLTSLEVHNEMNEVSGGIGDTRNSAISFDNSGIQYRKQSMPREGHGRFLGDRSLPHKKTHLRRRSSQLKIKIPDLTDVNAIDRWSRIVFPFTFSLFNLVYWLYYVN
TEST_DETAILS: Inhibition of [3H]pTFD-di-iPr-BnOH labelling of GABAA alpha1beta3gamma2L (unknown origin) expressed in Xenopus laevis oocytes assessed as reduction in photoincorporation at beta subunit measured after 30 mins in presence of GABA by liquid scintillation counting method
Assay type: cell-based

>>> print(df.to_string())
                                        smi  reported_value
0  CC(C)c1cc(C2(C(F)(F)F)N=N2)cc(C(C)C)c1CO           18 µM

Would you kindly look at the next entry?
stdin: Tell me the measured IC50 of CC(C)c1cccc(C(C)C)c1O , please.
stdout: 32 µM

###

TEST_DETAILS: Toxicity in Xenopus laevis tadpoles
REPORTED_PROPERTY: LC50 (µM)
Numbers only, in µM.

stdin: Tell me the measured LC50 of CC(C)c1cc(C2(C(F)(F)F)N=N2)cc(C(C)C)c1CO , please.
stdout: 3.6

###

Field: IC50. Provide a value for each of the molecules that follow.
TEST_TARGET: GABA-A receptor; alpha-1/beta-3/gamma-2 (Homo sapiens, UniProt P14867+P18507+P28472)
Sequence (P14867 whole entry): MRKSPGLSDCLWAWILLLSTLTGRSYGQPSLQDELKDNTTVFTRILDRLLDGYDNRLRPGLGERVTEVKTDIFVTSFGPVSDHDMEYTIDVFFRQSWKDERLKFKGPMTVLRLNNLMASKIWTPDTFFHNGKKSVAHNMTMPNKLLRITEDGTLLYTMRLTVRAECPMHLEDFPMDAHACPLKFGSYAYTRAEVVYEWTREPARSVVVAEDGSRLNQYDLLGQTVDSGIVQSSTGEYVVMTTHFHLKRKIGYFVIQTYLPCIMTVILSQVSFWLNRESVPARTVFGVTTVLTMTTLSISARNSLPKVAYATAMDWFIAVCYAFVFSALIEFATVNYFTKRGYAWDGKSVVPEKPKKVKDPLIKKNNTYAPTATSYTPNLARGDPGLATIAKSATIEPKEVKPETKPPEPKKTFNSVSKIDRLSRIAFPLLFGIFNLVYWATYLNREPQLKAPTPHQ
Sequence (P18507 whole entry): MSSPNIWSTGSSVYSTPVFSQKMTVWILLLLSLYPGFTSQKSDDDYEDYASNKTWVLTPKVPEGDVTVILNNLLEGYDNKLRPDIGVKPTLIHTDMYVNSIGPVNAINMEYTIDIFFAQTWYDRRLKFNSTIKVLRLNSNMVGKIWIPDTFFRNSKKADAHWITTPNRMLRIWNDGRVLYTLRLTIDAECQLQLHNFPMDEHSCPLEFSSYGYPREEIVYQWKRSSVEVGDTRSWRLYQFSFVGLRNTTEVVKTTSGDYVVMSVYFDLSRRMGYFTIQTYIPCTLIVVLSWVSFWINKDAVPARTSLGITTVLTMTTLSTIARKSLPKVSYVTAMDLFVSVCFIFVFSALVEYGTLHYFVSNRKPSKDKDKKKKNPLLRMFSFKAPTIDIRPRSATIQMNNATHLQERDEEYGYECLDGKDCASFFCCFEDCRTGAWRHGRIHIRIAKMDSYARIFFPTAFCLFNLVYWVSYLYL
Sequence (P28472 whole entry): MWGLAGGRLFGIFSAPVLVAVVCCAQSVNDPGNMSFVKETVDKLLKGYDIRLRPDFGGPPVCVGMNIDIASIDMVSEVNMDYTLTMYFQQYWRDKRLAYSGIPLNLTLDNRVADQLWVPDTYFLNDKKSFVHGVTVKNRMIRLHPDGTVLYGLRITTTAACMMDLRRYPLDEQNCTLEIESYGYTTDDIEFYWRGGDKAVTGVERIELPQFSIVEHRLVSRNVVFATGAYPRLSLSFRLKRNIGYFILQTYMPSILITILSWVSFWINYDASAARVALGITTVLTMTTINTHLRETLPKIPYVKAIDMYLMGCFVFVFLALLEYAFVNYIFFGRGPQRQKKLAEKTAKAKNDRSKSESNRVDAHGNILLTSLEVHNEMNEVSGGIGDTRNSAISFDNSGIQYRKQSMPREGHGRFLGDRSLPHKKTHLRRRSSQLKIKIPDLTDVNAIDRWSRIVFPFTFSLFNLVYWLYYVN
TEST_DETAILS: Inhibition of [3H]R-mTFD-MPAB labelling of GABAA alpha1beta3gamma2L (unknown origin) expressed in Xenopus laevis oocytes assessed as reduction in photoincorporation at M227 residues of beta3 subunit measured after 30 mins in presence of GABA by liquid scintillation counting method
Type: cell-based
Answers are plain numbers, in µM.

>>> print(df.to_string())
                           molecule                               test_target  reported_value
0  CC(C)c1cccc(C(C)C)c1O [PROPOFOL]  GABA-A receptor; alpha-1/beta-3/gamma-2 (Homo sapiens, UniProt P14867+P18507+P28472)              44
1      OCc1ccc(C2(C(F)(F)F)N=N2)cc1  GABA-A receptor; alpha-1/beta-3/gamma-2 (Homo sapiens, UniProt P14867+P18507+P28472)             465
2            CC(C)c1cccc(C(C)C)c1CO  GABA-A receptor; alpha-1/beta-3/gamma-2 (Homo sapiens, UniProt P14867+P18507+P28472)             243

Would you kindly look at the next entry?
stdin: Tell me the measured IC50 of CC(C)c1cc(C2(C(F)(F)F)N=N2)cc(C(C)C)c1CO , please.
stdout: 26
